Test system: T-47D breast
Assay: NCI tumour cell line growth inhibition, 48 h; in the data active means GI50 below about 0.43 µM; inactive means the rest
Bench note: report the call from 1 for active, -1 for inactive

Solved entries (count: 8):
MOLECULE	CLASSIFICATION
CC1=CC2(C)/C=C(C)/C=C\CC(O)/C=C3/C=CC(=C4C(=O)OC2(CC1C)C4=O)OC3 (stereo not drawn)	-1
N#C/C(=C\c1ccc[nH]1)c1cc(-c2ccc(Cl)cc2)nn1-c1ccccc1	-1
CCOC(=O)C1=C(Nc2ccc(OC)cc2)C(N)=NC1=N	-1
Clc1cnc(Nc2ccc(OCCN3CCCC3)cc2)nc1NCc1ccco1	-1
COc1ccc2c3ccnc(C(F)(F)F)c3n(CCCCN)c2c1	-1
COc1cc2c(cc1OCC(=O)Nc1ccc(Cl)cc1C(=O)c1ccccc1Cl)N=CC1CCCN1C2=O (stereo not drawn)	-1
CN1C(=O)N(C)C2C1NC(=S)N2/N=C/C=C/c1ccccc1[N+](=O)[O-] (stereo not drawn)	-1
CCC(=O)NC1=C(Cl)C(=O)C(NC(=O)CC)=C(Cl)C1=O	-1

Asked: Assay outcome for `Cc1ccc2sc3c(NCCCN)nc4ccccc4c3c(=O)c2c1` : what was it?
Given back: -1

Asked: Assay outcome for `COc1c(C(N)=O)cc(-c2ccc(Cl)cc2)cc1-c1ccc(S(N)(=O)=O)cc1` : what was it?
Given back: -1

Asked: Assay outcome for `O=C(Nc1nc2c(C(F)(F)F)cccc2s1)c1cc(Cl)ccc1O` : what was it?
Given back: 1

Asked: Assay outcome for `CC1=CC(C)=N/C(=N/S(=O)(=O)c2cc(C)c(Cl)cc2SCc2ccccc2)NN1` : what was it?
Given back: -1

Asked: Assay outcome for `COc1cccc(N2CC(O)=C(c3nc4ccccc4s3)C2=N)c1` : what was it?
Given back: -1

====

Tested on: SK-MEL-28 melanoma
Assay: NCI tumour cell line growth inhibition, 48 h
OBSERVED_PROPERTY: TGI (µM)
The reply should be a number in µM, with the unit left off.

Asked: Lab note: need TGI with SK-MEL-28 melanoma for entry `CCCCCCCCCCCCCCNCC(OC)OC` , please look it up.
Given back: 30.4

Asked: Lab note: need TGI with SK-MEL-28 melanoma for entry Cc1ccsc1C(NC(=O)c1ccccc1)c1cc(Cl)c2cccnc2c1O (configuration not stated) , please look it up.
Given back: 18.9

Asked: Lab note: need TGI with SK-MEL-28 melanoma for entry `N#C/C(=C\c1ccc[nH]1)c1cc(-c2ccc(Cl)cc2)nn1-c1ccccc1` , please look it up.
Given back: 17.5

====

Test system: SNB-75 CNS
Test: NCI tumour cell line growth inhibition, 48 h
Entries and their GI50 values follow.

O=C(Nc1ccc(Cl)c(Cl)c1)c1ccc(NC2=C(Cl)C(=O)N(Cc3ccccc3)C2=O)cc1 16.1 µM
Cn1nc(C(F)(F)F)cc1-c1cc(Cl)c(OCc2ccc(Cl)cc2)c(-c2ccc(Cl)c(C(F)(F)F)c2)c1O 0.984 µM

Asked: Sample `COc1ccc2c3ccnc(C(F)(F)F)c3n(CCCCN)c2c1` — what was its GI50?
Given back: 2.19 µM

====

Reported GI50 for target or system U251 CNS, by entry.

For orientation, consider the following solved cases.
COMPOUND	GI50
Nc1ccc(C#Cc2ccccc2C#CCCCCO)cc1	11.1 µM
CCOC(=O)N1CCC(N=C2CSc3nnc(-c4cc(C(F)(F)F)cc(C(F)(F)F)c4)n3N2)CC1	1.77 µM
CCOC(=O)C1=C(Nc2ccc(OC)cc2)C(N)=NC1=N	3.81 µM
COc1cc2c(cc1OCC(=O)Nc1ccc(Cl)cc1C(=O)c1ccccc1Cl)N=CC1CCCN1C2=O (stereo not given)	6.36 µM

Now consider the entry below.
Asked: Sample O=C1C=CC2C3C(=O)N(c4ccccc4)C(=O)C3C1N2Cc1ccccc1 (stereo not given) — what was its GI50?
Given back: 2.29 µM
